Kd values, listed per item
biological target: T1, cyno EphA2 ectodomain (cyno, UniProt Q1KL86 25-537); test: SPR (Biacore 8k), Fab-capture, 37C, 1:1 model;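 note: Anti-EphA2 IgG captured via immobilized anti-Fab, soluble EphA2 ectodomain as analyte at six twofold dilutions from 50 nM, HBS-EP+ pH 7.6 running buffer, double reference subtraction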
T1 construct: extracellular domain
T1 sequence (Q1KL86 25-537): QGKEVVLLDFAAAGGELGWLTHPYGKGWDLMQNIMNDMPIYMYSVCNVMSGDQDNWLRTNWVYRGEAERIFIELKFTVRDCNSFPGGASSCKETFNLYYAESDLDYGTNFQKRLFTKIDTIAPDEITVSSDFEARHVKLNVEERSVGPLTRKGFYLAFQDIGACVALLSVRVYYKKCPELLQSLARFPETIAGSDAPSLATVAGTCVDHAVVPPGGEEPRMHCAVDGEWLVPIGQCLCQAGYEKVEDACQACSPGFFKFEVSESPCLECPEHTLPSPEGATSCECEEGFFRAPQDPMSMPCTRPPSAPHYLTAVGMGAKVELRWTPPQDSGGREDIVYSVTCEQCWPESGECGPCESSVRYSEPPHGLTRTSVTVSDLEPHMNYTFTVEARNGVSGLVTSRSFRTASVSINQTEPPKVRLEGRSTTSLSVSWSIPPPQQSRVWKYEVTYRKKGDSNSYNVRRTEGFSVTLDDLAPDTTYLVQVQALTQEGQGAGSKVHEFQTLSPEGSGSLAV
The response must be a number in nM with no trailing unit.

Recorded results for 4 binders are shown here.
Entry LC Germ (1C1) (antibody, V domains shown, also called lots BA-71-QS06, HE-38-AZ34) VH: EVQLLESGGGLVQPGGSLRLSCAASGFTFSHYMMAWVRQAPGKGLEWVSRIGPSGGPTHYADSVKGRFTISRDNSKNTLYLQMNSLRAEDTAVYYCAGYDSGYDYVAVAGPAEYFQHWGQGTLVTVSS VL: DIQMTQSPSSLSASVGDRVTITCRASQSISTWLAWYQQKPGKAPKLLIYKASNLHTGVPSRFSGSGSGTEFSLTISGLQPDDFATYYCQQYNSYSRTFGQGTKVEIK : reported Kd = ?
224

Entry anti-EphA2 E152C S375C 1C1 (LC S93Q) hIgG1 (WT Heavy Chain) (antibody, V domains shown, also called DA-62-QP06) VH: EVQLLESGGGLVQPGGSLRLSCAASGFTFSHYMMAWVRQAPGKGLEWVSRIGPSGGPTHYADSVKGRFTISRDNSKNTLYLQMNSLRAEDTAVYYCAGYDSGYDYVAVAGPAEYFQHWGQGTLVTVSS VL: DIQMTQSPSSLSASVGDRVTITCRASQSISTWLAWYQQKPGKAPKLLIYKASNLHTGVPSRFSGSGSGTEFSLTISGLQPDDFATYYCQQYNQYSRTFGQGTKVEIKR : reported Kd = ?
272

Entry anti-EphA2 E152C S375C 1C1 (LC N92Q) hIgG1 (WT Heavy Chain) (antibody, V domains shown, also called 1C1 N92Q IgG; DE-54-AX20) VH: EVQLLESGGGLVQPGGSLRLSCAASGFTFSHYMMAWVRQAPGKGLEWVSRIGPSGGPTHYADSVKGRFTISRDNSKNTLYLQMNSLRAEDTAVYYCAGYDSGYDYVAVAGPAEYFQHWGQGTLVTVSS VL: DIQMTQSPSSLSASVGDRVTITCRASQSISTWLAWYQQKPGKAPKLLIYKASNLHTGVPSRFSGSGSGTEFSLTISGLQPDDFATYYCQQYQSYSRTFGQGTKVEIKR : reported Kd = ?
230

Entry anti-EphA2 E152C S375C 1C1 (LC S93A) hIgG1 (WT Heavy Chain) (antibody, V domains shown, also called HD-58-MP05) VH: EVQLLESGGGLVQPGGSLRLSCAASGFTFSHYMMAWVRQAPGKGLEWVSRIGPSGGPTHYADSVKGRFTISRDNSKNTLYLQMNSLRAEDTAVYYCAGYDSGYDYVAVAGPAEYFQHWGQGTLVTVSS VL: DIQMTQSPSSLSASVGDRVTITCRASQSISTWLAWYQQKPGKAPKLLIYKASNLHTGVPSRFSGSGSGTEFSLTISGLQPDDFATYYCQQYNAYSRTFGQGTKVEIKR : reported Kd = ?
259

# input for lookup
Entry anti-EphA2 IgG antibody 1C1 (antibody, V domains shown, Tested as IgG; also called 1C1 WT IgG; iProt 120126) VH: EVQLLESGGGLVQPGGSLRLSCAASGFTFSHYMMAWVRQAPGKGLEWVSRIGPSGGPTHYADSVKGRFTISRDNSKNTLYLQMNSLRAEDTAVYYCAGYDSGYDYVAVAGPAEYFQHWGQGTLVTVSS VL: DIQMTQSPSSLSASVGDRVTITCRASQSISTWLAWYQQKPGKAPKLLIYKASNLHTGVPSRFSGSGSGTEFSLTISGLQPDDFATYYCQQYNSYSRTFGQGTKVEIK : reported Kd = ?
265

Ref: patent US20260027220A1
